system: HT29 colon; experiment: NCI-60 one-dose screen, 48 h (100 = growth as untreated, 0 = no growth, -100 = all killed); conditions: 10 µM unless noted
About 83,000 compounds went through this panel and 20% of them were active in at least one assay; those are over-represented in the sample as a whole.
Lab note: compare growth with 90%, writing label 1 if less and label 0 if equal or more.

Recorded results for 5 compounds are shown here.
1) CCOC(=O)CC1CSC(N/N=C/c2ccc(O)cc2)=N1 (stereo not given) | label 0
2) C#Cc1cccc(Nc2ncnc3ccc(-c4cnc(Cl)c(NS(C)(=O)=O)c4)cc23)c1 | label 1
3) c1ccc(-c2cn3nc(-c4c[nH]c5ccccc45)sc3n2)cc1 | label 1
4) COc1cccc(C2C(C#N)=C(N)Oc3c2ccc2ccccc32)c1 (stereo not given) | label 1
5) O=C1C2C(c3cccs3)C=C(c3ccc(Cl)cc3)N2C(=S)N1c1ccccc1 (stereo not given) | label 0

## Task Does the reported growth of Cc1nc2ccccc2c(/C=C/c2ccc(Cl)cc2)c1C(=O)/C=C/c1ccccc1 stay below 90%?
## Result label 1
